- System: Influenza virus A/PR/8/34 (H1N1)
- measurement_protocol: in vitro cytopathic effect (CPE) assay in MDCK cells
- Type: cell-based
- condition_context: H1N1|PR/8, 120 h; MDCK cells infected with Influenza virus A/PR/8/34 (H1N1), 5 days, cell viability by CCK8
quantity_name: EC50 (nM)

INSERT INTO results (cpd_smiles, quantity_name, quantitative_readout) VALUES
  ('O=C1c2c(O)c(=O)ccn2N([C@H]2c3ccccc3SCc3cccc(F)c32)[C@@H]2[C@H]3C[C@@H]4CC[C@@]3(CCN12)O4', 'EC50', 52),
  ('O=C1c2c(O)c(=O)ccn2N([C@@H]2c3ccccc3SCc3cccc(F)c32)[C@@H]2[C@H]3C[C@@H]4CC[C@@]3(CCN12)O4', 'EC50', 2.1),
  ('O=C1c2c(O)c(=O)ccn2N(C2c3cccc(F)c3CCc3c(F)cccc32)[C@@H]2[C@H]3C[C@@H]4CC[C@@]3(CCN12)O4', 'EC50', 20),
  ('O=C1c2c(O)c(=O)ccn2N(C2c3ccc(F)cc3CCc3cc(F)ccc32)[C@@H]2[C@H]3C[C@@H]4CC[C@@]3(CCN12)O4', 'EC50', 3.6);
